Reference for the values: the kinase profiling compilation of Christmann-Franck et al. (2016)

- experimental.system: ULK1 (human)
- experiment: KINOMEscan competition binding
- test.conditions: compound 10.0 µM
test.readout: kinase still bound, per cent of control (%)

1) CCN1CCN(Cc2ccc(Nc3ncc4c(n3)N(C)c3ccccc3C(=O)N4C)cc2C(F)(F)F)CC1    0
2) O=C(NC1CC1)c1cccc(-c2ccc3c(NC(=O)C4CC4)n[nH]c3c2)c1    100
3) CCCS(=O)(=O)Nc1ccc(F)c(C(=O)c2c[nH]c3ncc(-c4ccc(Cl)cc4)cc23)c1F    93
4) O=C(O)c1ccc(Nc2ncc3c(n2)-c2ccc(Cl)cc2C(c2c(F)cccc2F)=NC3)cc1    40
5) C=CC(=O)Nc1cccc(Nc2nc(N[C@H]3CC[C@H](N(C)C)CC3)nc3c2ncn3C(C)C)c1    0.7

---

- experimental.system: IKBKB (human) (UniProt O14920)
- Sequence (O14920 whole entry, looked up): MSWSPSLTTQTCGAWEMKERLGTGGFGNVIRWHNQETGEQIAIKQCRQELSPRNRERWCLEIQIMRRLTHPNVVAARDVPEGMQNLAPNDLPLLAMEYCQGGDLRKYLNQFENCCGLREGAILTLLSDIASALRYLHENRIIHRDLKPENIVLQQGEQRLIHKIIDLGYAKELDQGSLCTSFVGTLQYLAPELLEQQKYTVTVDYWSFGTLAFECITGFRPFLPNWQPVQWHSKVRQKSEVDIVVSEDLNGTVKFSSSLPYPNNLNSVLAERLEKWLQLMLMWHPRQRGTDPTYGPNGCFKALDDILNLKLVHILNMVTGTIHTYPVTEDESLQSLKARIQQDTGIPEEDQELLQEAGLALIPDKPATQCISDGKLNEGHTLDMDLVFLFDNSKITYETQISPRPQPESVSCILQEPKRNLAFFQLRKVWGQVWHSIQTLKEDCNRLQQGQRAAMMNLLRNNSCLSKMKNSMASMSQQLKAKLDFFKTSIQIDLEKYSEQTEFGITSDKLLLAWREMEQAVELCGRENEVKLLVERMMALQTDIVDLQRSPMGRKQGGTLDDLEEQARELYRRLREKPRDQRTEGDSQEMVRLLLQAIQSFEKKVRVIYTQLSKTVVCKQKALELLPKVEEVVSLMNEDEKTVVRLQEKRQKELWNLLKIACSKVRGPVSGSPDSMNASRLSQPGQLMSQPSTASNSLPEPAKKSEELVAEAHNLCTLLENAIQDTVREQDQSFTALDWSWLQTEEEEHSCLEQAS
- experiment: KINOMEscan competition binding
- test.conditions: compound 10.0 µM
Note to self: kinase still bound, per cent of control under 90% means yes (1), ties and anything higher get no (0).

1) CC[C@@H]1C(=O)N(C)c2cnc(Nc3ccc(C(=O)NC4CCN(C)CC4)cc3OC)nc2N1C1CCCC1    no (0)
2) Cn1c(=O)n(-c2ccc(C(C)(C)C#N)cc2)c2c3cc(-c4cnc5ccccc5c4)ccc3ncc21    no (0)
3) CN(C)C/C=C/C(=O)Nc1cccc(Nc2ncc3c(n2)N(C)c2ccccc2C(=O)N3C)c1    no (0)
4) C[C@@H](Oc1cc(-n2cnc3ccc(CN4CCN(C)CC4)cc32)sc1C(N)=O)c1ccccc1C(F)(F)F    yes (1)
5) COc1cc(N2CCN(C)CC2)ccc1Nc1nc(N)c(C(=O)c2c(Cl)cccc2Cl)s1    no (0)
6) O=C(O)c1ccc(Nc2ncc3c(n2)-c2ccc(Cl)cc2C(c2c(F)cccc2F)=NC3)cc1    no (0)
7) O=C(NOC[C@H](O)CO)c1ccc(F)c(F)c1Nc1ccc(I)cc1F    yes (1)
8) O=C(NC1CC1)c1cccc(-c2ccc3c(NC(=O)C4CC4)n[nH]c3c2)c1    yes (1)

---

Each entry below lists one item and its recorded kinase still bound, per cent of control value.
- experimental.system: PIP4K2C (human) (UniProt Q8TBX8)
- Sequence (Q8TBX8 whole entry, looked up): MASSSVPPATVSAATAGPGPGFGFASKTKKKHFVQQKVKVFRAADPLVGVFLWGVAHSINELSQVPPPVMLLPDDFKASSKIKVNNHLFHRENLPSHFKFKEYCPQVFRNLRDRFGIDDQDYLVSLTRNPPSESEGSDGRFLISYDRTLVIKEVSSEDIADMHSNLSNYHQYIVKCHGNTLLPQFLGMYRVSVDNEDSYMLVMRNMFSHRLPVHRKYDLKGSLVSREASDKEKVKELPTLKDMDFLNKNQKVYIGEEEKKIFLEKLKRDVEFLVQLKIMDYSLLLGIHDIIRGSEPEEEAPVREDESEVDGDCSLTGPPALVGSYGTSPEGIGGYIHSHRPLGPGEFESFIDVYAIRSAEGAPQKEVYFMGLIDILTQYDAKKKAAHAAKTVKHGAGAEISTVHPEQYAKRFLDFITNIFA
- experiment: KINOMEscan competition binding
- test.conditions: compound 10.0 µM
test.readout: kinase still bound, per cent of control (%)

1) Cc1ccc2nc(NCCN)c3ncc(C)n3c2c1    100
2) CCN1CCN(Cc2ccc(Nc3ncc4c(n3)N(C)c3ccccc3C(=O)N4C)cc2C(F)(F)F)CC1    3.6
3) C=CC(=O)Nc1cccc(Nc2nc(N[C@H]3CC[C@H](N(C)C)CC3)nc3c2ncn3C(C)C)c1    66
4) Nc1ccc(-c2ccc3ncc4ccc(=O)n(-c5cccc(C(F)(F)F)c5)c4c3c2)cn1    21
5) CCOc1cc2ncc(C#N)c(Nc3ccc(OCc4ccccn4)c(Cl)c3)c2cc1NC(=O)/C=C/CN(C)C    100
6) O=C(NC1CC1)c1cccc(-c2ccc3c(NC(=O)C4CC4)n[nH]c3c2)c1    95
7) CCCS(=O)(=O)Nc1ccc(F)c(C(=O)c2c[nH]c3ncc(-c4ccc(Cl)cc4)cc23)c1F    100
8) O=C1Nc2ccc(I)cc2/C1=C/c1cc(Br)c(O)c(Br)c1    100
9) C=CC(=O)Nc1cc(NC(=O)c2ccc(C)c(NC(=O)c3ccno3)c2)cc(C(F)(F)F)c1    90
10) N#Cc1c(NC(=O)c2cccc3ccccc23)sc2c1CCCC2    100

---

Each entry below lists one item and its recorded kinase still bound, per cent of control value.
- experimental.system: UniProtKB O75747
- Sequence (O75747 whole entry, looked up): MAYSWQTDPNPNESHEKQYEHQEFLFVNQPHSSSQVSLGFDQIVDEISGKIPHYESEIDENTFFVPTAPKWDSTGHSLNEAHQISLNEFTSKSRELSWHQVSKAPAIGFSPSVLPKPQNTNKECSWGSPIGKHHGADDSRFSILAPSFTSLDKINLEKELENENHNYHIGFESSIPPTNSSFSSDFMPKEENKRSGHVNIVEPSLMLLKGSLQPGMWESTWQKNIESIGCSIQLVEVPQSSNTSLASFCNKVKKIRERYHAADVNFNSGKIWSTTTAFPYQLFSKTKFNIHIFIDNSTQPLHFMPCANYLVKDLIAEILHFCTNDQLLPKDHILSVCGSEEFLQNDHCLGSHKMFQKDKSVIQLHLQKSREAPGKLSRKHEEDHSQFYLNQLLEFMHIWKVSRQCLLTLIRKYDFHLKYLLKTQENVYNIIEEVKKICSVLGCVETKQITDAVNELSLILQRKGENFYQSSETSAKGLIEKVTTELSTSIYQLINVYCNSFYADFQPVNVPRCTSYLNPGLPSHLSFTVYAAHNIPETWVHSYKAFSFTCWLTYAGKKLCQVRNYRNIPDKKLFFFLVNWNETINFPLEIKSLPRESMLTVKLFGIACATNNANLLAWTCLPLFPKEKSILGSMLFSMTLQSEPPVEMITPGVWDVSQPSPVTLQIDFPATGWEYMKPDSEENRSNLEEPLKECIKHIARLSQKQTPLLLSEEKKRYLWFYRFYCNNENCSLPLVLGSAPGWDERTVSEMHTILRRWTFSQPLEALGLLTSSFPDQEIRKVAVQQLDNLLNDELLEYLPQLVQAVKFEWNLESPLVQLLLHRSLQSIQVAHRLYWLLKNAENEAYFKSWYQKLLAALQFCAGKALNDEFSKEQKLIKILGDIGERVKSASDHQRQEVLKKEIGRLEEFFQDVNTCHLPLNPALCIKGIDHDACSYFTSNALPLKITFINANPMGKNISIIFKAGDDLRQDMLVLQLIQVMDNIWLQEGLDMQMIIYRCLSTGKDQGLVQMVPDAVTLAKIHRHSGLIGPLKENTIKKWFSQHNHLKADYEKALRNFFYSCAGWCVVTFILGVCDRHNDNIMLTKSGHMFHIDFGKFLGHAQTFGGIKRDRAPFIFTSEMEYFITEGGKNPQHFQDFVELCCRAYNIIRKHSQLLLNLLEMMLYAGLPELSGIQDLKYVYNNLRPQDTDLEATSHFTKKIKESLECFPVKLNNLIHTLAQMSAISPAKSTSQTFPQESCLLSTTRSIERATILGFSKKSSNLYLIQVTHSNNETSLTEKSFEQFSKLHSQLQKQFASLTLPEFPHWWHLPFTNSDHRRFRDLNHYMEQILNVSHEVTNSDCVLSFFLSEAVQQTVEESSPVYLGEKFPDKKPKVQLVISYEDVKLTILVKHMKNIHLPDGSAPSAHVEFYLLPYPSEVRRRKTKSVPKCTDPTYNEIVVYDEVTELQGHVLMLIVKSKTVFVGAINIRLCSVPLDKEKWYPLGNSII
- experiment: KINOMEscan competition binding
- test.conditions: compound 10.0 µM
test.readout: kinase still bound, per cent of control

1. C=CC(=O)Nc1cccc(Nc2nc(N[C@H]3CC[C@H](N(C)C)CC3)nc3c2ncn3C(C)C)c1    100%
2. CN(C)C/C=C/C(=O)Nc1cccc(Nc2ncc3c(n2)N(C)c2ccccc2C(=O)N3C)c1    76%
3. O=C(NOC[C@H](O)CO)c1ccc(F)c(F)c1Nc1ccc(I)cc1F    48%
4. CCC(=O)N1CCN(c2ccc(-n3c(=O)ccc4cnc5ccc(-c6cnc7ccccc7c6)cc5c43)cc2C(F)(F)F)CC1    11%
5. Cc1ccc2nc(NCCN)c3ncc(C)n3c2c1    23%
6. N#Cc1c(NC(=O)c2cccc3ccccc23)sc2c1CCCC2    87%
7. CCCS(=O)(=O)Nc1ccc(F)c(C(=O)c2c[nH]c3ncc(-c4ccc(Cl)cc4)cc23)c1F    62%
8. COc1cc(N2CCN(C)CC2)ccc1Nc1nc(N)c(C(=O)c2c(Cl)cccc2Cl)s1    100%
9. Cn1c(=O)n(-c2ccc(C(C)(C)C#N)cc2)c2c3cc(-c4cnc5ccccc5c4)ccc3ncc21    4.4%
10. C=CC(=O)Nc1cc(NC(=O)c2ccc(C)c(NC(=O)c3ccno3)c2)cc(C(F)(F)F)c1    100%
11. Cc1cc([C@@H](C)Nc2ccccc2C(=O)O)c2nc(N3CCOCC3)cc(=O)n2c1    7%
12. OCCCNc1cc(-c2ccnc(Nc3cccc(Cl)c3)n2)ccn1    100%
13. CCOc1cc2ncc(C#N)c(Nc3ccc(OCc4ccccn4)c(Cl)c3)c2cc1NC(=O)/C=C/CN(C)C    100%
14. COc1cc(C(=O)NC2CCN(C)CC2)ccc1Nc1ncc2c(n1)N(C1CCCC1)CCC(=O)N2C(C)C    100%
15. O=C(NC1CC1)c1cccc(-c2ccc3c(NC(=O)C4CC4)n[nH]c3c2)c1    100%
16. Cc1ccc(NC(=O)c2cccc(C(C)(C)C#N)c2)cc1Nc1ccc2ncn(C)c(=O)c2c1    88%
17. C[C@@H](Oc1cc(-n2cnc3ccc(CN4CCN(C)CC4)cc32)sc1C(N)=O)c1ccccc1C(F)(F)F    40%
18. CCN1CCN(Cc2ccc(Nc3ncc4c(n3)N(C)c3ccccc3C(=O)N4C)cc2C(F)(F)F)CC1    17%
19. O=C(O)c1ccc(Nc2ncc3c(n2)-c2ccc(Cl)cc2C(c2c(F)cccc2F)=NC3)cc1    16%
20. O=C1Nc2ccc(I)cc2/C1=C/c1cc(Br)c(O)c(Br)c1    44%

---

- experimental.system: CDK4 CCND3 (human) (UniProt P11802+P30281)
- Sequence (P11802 whole entry, looked up): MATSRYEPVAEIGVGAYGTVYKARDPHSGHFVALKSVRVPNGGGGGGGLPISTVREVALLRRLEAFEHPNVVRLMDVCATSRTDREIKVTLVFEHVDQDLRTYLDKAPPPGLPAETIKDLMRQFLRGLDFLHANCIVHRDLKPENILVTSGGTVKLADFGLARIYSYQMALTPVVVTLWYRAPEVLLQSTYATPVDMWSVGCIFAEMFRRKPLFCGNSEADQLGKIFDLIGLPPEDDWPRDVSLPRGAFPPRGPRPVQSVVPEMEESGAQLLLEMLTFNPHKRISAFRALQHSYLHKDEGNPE
- Sequence (P30281 whole entry, looked up): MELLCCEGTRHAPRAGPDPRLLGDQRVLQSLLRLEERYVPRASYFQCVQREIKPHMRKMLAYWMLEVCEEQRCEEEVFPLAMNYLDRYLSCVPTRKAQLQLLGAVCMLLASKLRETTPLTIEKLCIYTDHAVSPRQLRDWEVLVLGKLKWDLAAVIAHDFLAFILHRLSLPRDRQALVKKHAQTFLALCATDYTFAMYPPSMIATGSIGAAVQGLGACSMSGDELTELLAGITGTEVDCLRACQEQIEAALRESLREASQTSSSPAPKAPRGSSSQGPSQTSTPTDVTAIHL
- experiment: KINOMEscan competition binding
- test.conditions: compound 10.0 µM
test.readout: kinase still bound, per cent of control (%)

1. Nc1ccc(-c2ccc3ncc4ccc(=O)n(-c5cccc(C(F)(F)F)c5)c4c3c2)cn1    90
2. C=CC(=O)Nc1cccc(Nc2nc(N[C@H]3CC[C@H](N(C)C)CC3)nc3c2ncn3C(C)C)c1    23
3. O=C(NOC[C@H](O)CO)c1ccc(F)c(F)c1Nc1ccc(I)cc1F    84
4. CCCS(=O)(=O)Nc1ccc(F)c(C(=O)c2c[nH]c3ncc(-c4ccc(Cl)cc4)cc23)c1F    82
5. Cc1ccc(NC(=O)c2cccc(C(C)(C)C#N)c2)cc1Nc1ccc2ncn(C)c(=O)c2c1    90

---

- experimental.system: CDK11B (human) (UniProt P21127)
- Sequence (P21127 whole entry, looked up): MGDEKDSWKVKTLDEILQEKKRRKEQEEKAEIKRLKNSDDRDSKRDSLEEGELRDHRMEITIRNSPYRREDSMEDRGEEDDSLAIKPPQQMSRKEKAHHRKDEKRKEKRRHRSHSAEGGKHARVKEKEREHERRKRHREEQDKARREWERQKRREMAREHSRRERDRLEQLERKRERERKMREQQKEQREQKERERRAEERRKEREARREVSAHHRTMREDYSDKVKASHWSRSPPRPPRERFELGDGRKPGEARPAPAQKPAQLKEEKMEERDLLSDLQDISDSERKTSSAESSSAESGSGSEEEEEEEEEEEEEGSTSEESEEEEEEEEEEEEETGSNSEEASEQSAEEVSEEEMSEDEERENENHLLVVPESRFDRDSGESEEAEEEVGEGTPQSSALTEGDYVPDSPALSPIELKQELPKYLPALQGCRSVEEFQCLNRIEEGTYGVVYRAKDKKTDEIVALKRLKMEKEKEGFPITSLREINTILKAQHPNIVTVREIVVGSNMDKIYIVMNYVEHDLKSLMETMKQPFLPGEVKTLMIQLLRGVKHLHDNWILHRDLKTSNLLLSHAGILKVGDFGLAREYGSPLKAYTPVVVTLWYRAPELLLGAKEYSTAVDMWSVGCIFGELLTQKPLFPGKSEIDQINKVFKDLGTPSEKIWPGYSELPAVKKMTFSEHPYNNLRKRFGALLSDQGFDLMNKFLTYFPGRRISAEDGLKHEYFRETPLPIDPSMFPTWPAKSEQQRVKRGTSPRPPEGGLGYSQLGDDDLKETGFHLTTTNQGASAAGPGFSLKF
- experiment: KINOMEscan competition binding
- test.conditions: compound 10.0 µM
test.readout: kinase still bound, per cent of control (%)

1) CC[C@@H]1C(=O)N(C)c2cnc(Nc3ccc(C(=O)NC4CCN(C)CC4)cc3OC)nc2N1C1CCCC1    100
2) N#Cc1c(NC(=O)c2cccc3ccccc23)sc2c1CCCC2    95
3) C[C@@H](Oc1cc(-n2cnc3ccc(CN4CCN(C)CC4)cc32)sc1C(N)=O)c1ccccc1C(F)(F)F    100
4) CCN1CCN(Cc2ccc(Nc3ncc4c(n3)N(C)c3ccccc3C(=O)N4C)cc2C(F)(F)F)CC1    99
5) CCCS(=O)(=O)Nc1ccc(F)c(C(=O)c2c[nH]c3ncc(-c4ccc(Cl)cc4)cc23)c1F    100
6) C=CC(=O)Nc1cccc(Nc2nc(N[C@H]3CC[C@H](N(C)C)CC3)nc3c2ncn3C(C)C)c1    100
7) C=CC(=O)Nc1cccc(Oc2nc(Nc3ccc(N4CCN(C)CC4)cc3OC)ncc2Cl)c1    100
8) Cn1c(=O)n(-c2ccc(C(C)(C)C#N)cc2)c2c3cc(-c4cnc5ccccc5c4)ccc3ncc21    100
9) O=C(O)c1ccc(Nc2ncc3c(n2)-c2ccc(Cl)cc2C(c2c(F)cccc2F)=NC3)cc1    89
10) Cc1cc([C@@H](C)Nc2ccccc2C(=O)O)c2nc(N3CCOCC3)cc(=O)n2c1    100
11) CCOc1cc2ncc(C#N)c(Nc3ccc(OCc4ccccn4)c(Cl)c3)c2cc1NC(=O)/C=C/CN(C)C    97
12) COc1cc(C(=O)NC2CCN(C)CC2)ccc1Nc1ncc2c(n1)N(C1CCCC1)CCC(=O)N2C(C)C    100
13) Cc1ccc(NC(=O)c2cccc(C(C)(C)C#N)c2)cc1Nc1ccc2ncn(C)c(=O)c2c1    11
14) CCC(=O)N1CCN(c2ccc(-n3c(=O)ccc4cnc5ccc(-c6cnc7ccccc7c6)cc5c43)cc2C(F)(F)F)CC1    97
15) O=C1Nc2ccc(I)cc2/C1=C/c1cc(Br)c(O)c(Br)c1    100
16) C=CC(=O)Nc1cc(NC(=O)c2ccc(C)c(NC(=O)c3ccno3)c2)cc(C(F)(F)F)c1    86
17) O=C(NOC[C@H](O)CO)c1ccc(F)c(F)c1Nc1ccc(I)cc1F    97
18) COc1cc(N2CCN(C)CC2)ccc1Nc1nc(N)c(C(=O)c2c(Cl)cccc2Cl)s1    5.3
